Cited source: patent US11814445B2

- TARGET_SYSTEM: human PCSK9 / human LDLR EGFa domain (Homo sapiens)
- Sequence (Q8NBP7 153-692): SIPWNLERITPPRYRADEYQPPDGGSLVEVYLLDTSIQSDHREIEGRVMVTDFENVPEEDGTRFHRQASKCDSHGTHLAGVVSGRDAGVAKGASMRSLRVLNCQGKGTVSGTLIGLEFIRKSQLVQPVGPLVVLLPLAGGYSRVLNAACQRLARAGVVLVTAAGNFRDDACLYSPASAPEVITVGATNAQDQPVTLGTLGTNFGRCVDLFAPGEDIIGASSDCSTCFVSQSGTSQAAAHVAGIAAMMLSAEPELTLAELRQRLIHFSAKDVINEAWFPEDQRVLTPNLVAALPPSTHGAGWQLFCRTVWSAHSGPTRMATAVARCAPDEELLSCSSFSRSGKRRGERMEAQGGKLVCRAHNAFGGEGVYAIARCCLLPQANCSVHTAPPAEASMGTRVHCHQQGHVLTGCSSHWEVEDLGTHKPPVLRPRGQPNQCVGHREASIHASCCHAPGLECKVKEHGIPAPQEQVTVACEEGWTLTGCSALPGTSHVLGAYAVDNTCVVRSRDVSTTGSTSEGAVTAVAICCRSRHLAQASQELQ
- ASSAY_PROTOCOL: TR-FRET assay of inhibition of the PCSK9-LDLR protein-protein interaction
- Assay type: binding
- CONDITION_CONTEXT: 20 nM human PCSK9, 20 nM human LDLR EGFa domain, 2 hours room temperature
pIC50: −log10 of the molar value. Numbered stars: 1 amine (or outer) side, 2 acyl side, 3 side chain; on linkers, the order of the positions; unused ones are H or OH. Bridge positions count the residues as written; N and C are the ends. Square brackets hold non-standard residues; d marks the D form. Peptide text beside a SMILES is read from it. Trp(5-F) = N[C@@H](Cc1c[nH]c2ccc(F)cc12)C(=O)O; Phe(4-Cl) = N[C@@H](Cc1ccc(Cl)cc1)C(=O)O; X1 = O=C(CCSCc1cccc(CSCCN[*:1])c1)[*:2]; Pro(4,4-F2) = O=C(O)[C@@H]1CC(F)(F)CN1; 2Nal = N[C@@H](Cc1ccc2ccccc2c1)C(=O)O; mXylylene = c1cc(C[*:1])cc(C[*:2])c1; NMeF = CN[C@@H](Cc1ccccc1)C(=O)O; Pip = O=C(O)[C@@H]1CCCCN1; Mpa = O=C(O)CCS
RESULT_TYPE: pIC50

molecule="C[C@@H]1NC(=O)[C@@H]2CCCN2C(=O)[C@H](Cc2c[nH]c3ccc(F)cc23)NC(=O)[C@H](Cc2c[nH]c3ccc(F)cc23)NC(=O)[C@@H](C)NC(=O)[C@@H]2CCCN2C(=O)CCSCc2cccc(c2)CSCCNC(=O)[C@@H]2CCCN2C(=O)[C@H](Cc2ccc(O)cc2)NC1=O [Compound 050] (cyclo(AYP[X1]P[dA][Trp(5-F)][Trp(5-F)]P))" result="7.00 to 9.00"

Reported pIC50 ( C[C@@H]1NC(=O)CCSCc2cccc(c2)CSCCNC(=O)[C@@H]2CCCN2C(=O)[C@H](Cc2ccc3ccccc3c2)NC(=O)[C@H](C)NC(=O)[C@@H]2CCCCN2C(=O)[C@H](Cc2c[nH]c3ccc(F)cc23)NC(=O)[C@H](Cc2c[nH]c3ccc(F)cc23)NC(=O)[C@@H](C)NC1=O [Compound 089] (cyclo([2Nal]P[X1]A[dA][Trp(5-F)][Trp(5-F)][Pip]A)) ) = 7.00 to 9.00

Documented pIC50 of C[C@@H]1NC(=O)[C@@H]2CC(F)(F)CN2C(=O)[C@H](Cc2c[nH]c3ccc(F)cc23)NC(=O)[C@H](Cc2c[nH]c3ccc(F)cc23)NC(=O)[C@@H](C)NC(=O)[C@H](CCCCN)NC(=O)CCSCc2cccc(c2)CSC[C@@H](C(N)=O)NC(=O)[C@@H]2CCCN2C(=O)[C@H](Cc2ccc(O)cc2)NC1=O [Compound 036] ([Mpa]K[dA][Trp(5-F)][Trp(5-F)][Pro(4,4-F2)]AYPC-NH2; linker 1-10 via mXylylene) : 6.00 to 7.00

// pIC50 lookup, molecule = C[C@@H]1NC(=O)CCSCc2cccc(c2)CSC[C@@H](C(N)=O)NC(=O)[C@@H]2CCCN2C(=O)[C@H](Cc2ccc(Cl)cc2)NC(=O)[C@H](C)NC(=O)[C@@H]2CCCN2C(=O)[C@H](Cc2c[nH]c3ccc(F)cc23)NC(=O)[C@H](Cc2c[nH]c3ccc(F)cc23)NC(=O)[C@@H](C)NC1=O [Compound 083] ([Mpa]A[dA][Trp(5-F)][Trp(5-F)]PA[Phe(4-Cl)]PC-NH2; linker 1-10 via mXylylene) , result: 4.30 to 4.68

The reported pIC50 of the molecule C[C@@H]1NC(=O)CCSCc2cccc(c2)CSCCNC(=O)[C@@H]2CCCN2C(=O)[C@H](Cc2ccccc2)N(C)C(=O)[C@H](C)NC(=O)[C@@H]2CCCN2C(=O)[C@H](Cc2c[nH]c3ccc(F)cc23)NC(=O)[C@H](Cc2c[nH]c3ccc(F)cc23)NC(=O)[C@@H](C)NC1=O [Compound 063] (cyclo(A[NMeF]P[X1]A[dA][Trp(5-F)][Trp(5-F)]P)) was 7.00 to 9.00

---

- TARGET_SYSTEM: PCSK9 (Homo sapiens, UniProt Q8NBP7)
- Construct: biotin (biotinylated)
- Sequence (Q8NBP7 153-692): as above
- ASSAY_PROTOCOL: PCSK9 Alexa FRET Standard assay (displacement of AlexaFluor647 tagged cyclic peptide Reagent A)
- Assay type: binding
- CONDITION_CONTEXT: 0.5 nM PCSK9, 20 nM AF cyclic peptide Reagent A
pIC50: −log10 of the molar value. Numbered stars: 1 amine (or outer) side, 2 acyl side, 3 side chain; on linkers, the order of the positions; unused ones are H or OH. Bridge positions count the residues as written; N and C are the ends. Square brackets hold non-standard residues; d marks the D form. Peptide text beside a SMILES is read from it. Phe(3,4,5-F3) = N[C@@H](Cc1cc(F)c(F)c(F)c1)C(=O)O; Trp(5-F) = N[C@@H](Cc1c[nH]c2ccc(F)cc12)C(=O)O; 2Nal = N[C@@H](Cc1ccc2ccccc2c1)C(=O)O; mXylylene = c1cc(C[*:1])cc(C[*:2])c1; X3 = O=C(CCSC/C=C/CSCCN[*:1])[*:2]; hCha = N[C@@H](CCC1CCCCC1)C(=O)O; αMeP = C[C@@]1(C(=O)O)CCCN1; hSer = N[C@@H](CCO)C(=O)O; Mpa = O=C(O)CCS
RESULT_TYPE: pIC50

For orientation, consider the following solved cases.
compound="C[C@@H]1NC(=O)[C@@H]2CCCN2C(=O)[C@H](Cc2cc(F)c(F)c(F)c2)NC(=O)[C@H](Cc2c[nH]c3ccc(F)cc23)NC(=O)CNC(=O)[C@H](CCCCN)NC(=O)CCSCc2cccc(c2)CSC[C@@H](C(N)=O)NC(=O)[C@@H]2CCCN2C(=O)[C@H](Cc2ccc(O)cc2)NC1=O [Compound 014] ([Mpa]KG[Trp(5-F)][Phe(3,4,5-F3)]PAYPC-NH2; linker 1-10 via mXylylene)" result="7.00 to 9.00"
compound="C[C@@H]1NC(=O)[C@@H]2CCCN2C(=O)[C@H](CCC2CCCCC2)NC(=O)[C@H](Cc2c[nH]c3ccc(F)cc23)NC(=O)CNC(=O)[C@H](CCCCN)NC(=O)CCSCc2cccc(c2)CSC[C@@H](C(N)=O)NC(=O)[C@@H]2CCCN2C(=O)[C@H](Cc2ccc(O)cc2)NC1=O [Compound 026] ([Mpa]KG[Trp(5-F)][hCha]PAYPC-NH2; linker 1-10 via mXylylene)" result="7.00 to 9.00"
compound="NCCCC[C@@H]1NC(=O)CCSCc2cccc(c2)CSC[C@@H](C(N)=O)NC(=O)[C@@H]2CCCN2C(=O)[C@H](Cc2ccc(O)cc2)NC(=O)[C@H](Cc2cnc[nH]2)NC(=O)[C@H](CCO)NC(=O)[C@H](Cc2c[nH]c3ccc(F)cc23)NC(=O)[C@H](Cc2c[nH]c3ccc(F)cc23)NC(=O)CNC1=O [Compound 117] ([Mpa]KG[Trp(5-F)][Trp(5-F)][hSer]HYPC-NH2; linker 1-10 via mXylylene)" result="7.00 to 9.00"
compound=COc1ccc(C[C@@H]2NC(=O)[C@H]([C@@H](C)O)NC(=O)[C@H]3C[C@@H](F)CN3C(=O)[C@H]3Cc4cn(c5ccc(F)cc45)Cc4cn(nn4)-c4cc(cc(c4)CSCCC(=O)N[C@@H](C)C(=O)N[C@H](C)C(=O)N[C@@H](Cc4c[nH]c5ccc(F)cc45)C(=O)N3)CSCCNC(=O)[C@]3(C)CCCN3C2=O)cc1 result="6.00 to 7.00"
compound=COc1ccc(C[C@@H]2NC(=O)[C@H](C)NC(=O)CN3CCCCOc4cccc(c4)C[C@H](NC(=O)CNC(=O)CCCCCNC(=O)c4ccc(cc4)C[C@@H](C(N)=O)NC(=O)[C@]4(C)CCCN4C2=O)C(=O)N[C@@H](Cc2c[nH]c4ccc(F)cc24)C3=O)cc1 result="7.00 to 9.00"
compound="C[C@@H]1NC(=O)[C@@H]2CCCN2C(=O)[C@H](Cc2c[nH]c3ccc(F)cc23)NC(=O)[C@H](Cc2c[nH]c3ccc(F)cc23)NC(=O)[C@@H](C)NC(=O)[C@H](CCCCN)NC(=O)CCSC/C=C/CSCCNC(=O)[C@]2(C)CCCN2C(=O)[C@H](Cc2ccc(O)cc2)NC1=O [Compound 045] (cyclo(AY[αMeP][X3]K[dA][Trp(5-F)][Trp(5-F)]P))" result="7.00 to 9.00"

The reported value for C[C@@H]1NC(=O)[C@@H]2CCCN2C(=O)[C@H](Cc2ccc3ccccc3c2)NC(=O)[C@H](Cc2c[nH]c3ccc(F)cc23)NC(=O)CNC(=O)[C@H](CCCCN)NC(=O)CCSCc2cccc(c2)CSC[C@@H](C(N)=O)NC(=O)[C@@H]2CCCN2C(=O)[C@H](Cc2ccc(O)cc2)NC1=O [Compound 011] ([Mpa]KG[Trp(5-F)][2Nal]PAYPC-NH2; linker 1-10 via mXylylene) in terms of pIC50 is 7.00 to 9.00
